Data origin, for the record: ChEMBL document CHEMBL1137308

Give measured MIC for each item. Keep answers brief.
Tested on: Streptococcus pneumoniae
METHOD SUMMARY: Antibacterial activity against Streptococcus pneumonia SVI SP3
Format: functional
Give just the number in µg/mL; leave the unit off.

Entry COc1c(N2CCNC(C)C2)c(F)cc2c(=O)c(C(=O)O)cn(C3CC3)c12 (stereo not given) ; MIC = 0.125

Entry COc1c(N2CC[C@@H]([C@H](C)N)C2)c(F)cc2c(=O)n(N)c(=O)n(C3CC3)c12 — recorded MIC = 0.03

// C[C@H]1NCc2cc(-c3ccc4c(=O)c(C(=O)O)cn(C5CC5)c4c3OC(F)F)ccc21 : MIC value = 0.03

Item: Cc1c(N2CC[C@@H]([C@H](C)N)C2)c(F)cc2c(=O)n(N)c(=O)n(C3CC3)c12 | MIC: 0.015

Value of measured MIC for the entry O=C(O)c1cn(C2CC2)c2cc(N3CCNCC3)c(F)cc2c1=O : 1
